# experiment.summary: Log P determination (n-octanol/water, FAAS)
# test.context: Log P, n-octanol/water, gold by FAAS
logP overview
measurement.kind: logP

- compound: "CC(=O)OCC1O[C@@H]([S][Au-][P+](c2ccc(F)cc2)(c2ccc(F)cc2)c2ccc(F)cc2)C(OC(C)=O)[C@@H](OC(C)=O)[C@@H]1OC(C)=O (stereo partly shown)"
  measured: "> 3.04"
- compound: "Fc1ccc([P+]([Au-][Cl])(c2ccc(F)cc2)c2ccc(F)cc2)cc1"
  measured: "> 4.04"
- compound: "CC(=O)OCC1O[C@@H]([S][Au-][P+](c2ccc(C(F)(F)F)cc2)(c2ccc(C(F)(F)F)cc2)c2ccc(C(F)(F)F)cc2)C(OC(C)=O)[C@@H](OC(C)=O)[C@@H]1OC(C)=O (stereo partly shown)"
  measured: "> 3.55"
- compound: "CC[P+](CC)(CC)[Au-][S]c1ccc([N+](=O)[O-])cc1"
  measured: "> 3"
